system: HCT116 (colon); test: SRB cell growth inhibition assay, HCT116; format: cell-based; settings: Homo sapiens, HCT-116, HCT116, 96 hours
Measured endpoint: IC50 (nM)
Use nM as the unit, but write only the number.

Input: Record request: IC50 value, item `Nc1ccn([C@@H]2C(F)=C(CO)[C@@H](O)[C@H]2O)c(=O)n1`
Output: 190

---

test system: LnCap (prostate); test: SRB cell growth inhibition assay, LnCap; assay type: cell-based; details: Homo sapiens, 96 hours
Measured endpoint: IC50 (nM)
I only need the number, in nM, no unit after it.

Input: Reported IC50, compound `Nc1ccn([C@@H]2C(F)=C(CO)[C@@H](O)[C@H]2O)c(=O)n1` : ____
Output: 2670
